# testProtocol: Inhibition of wild type HIV reverse transcriptase
# Set-up: species or system Human immunodeficiency virus
measuredParameter: pIC50
Answers are plain numbers, as −log10 of the molar value.

// batch mode: one pIC50 value per listed entry
1. Nc1ncnc2c1ncn2[C@H]1C=C[C@@H](OCP(=O)(O)OP(=O)(O)OP(=O)(O)O)O1
2. Cc1cn([C@H]2C=C[C@@H](OCP(=O)(O)OP(=O)(O)OP(=O)(O)O)O2)c(=O)[nH]c1=O
3. Nc1ncnc2c1ncn2[C@H]1CO[C@@H](OCP(=O)(O)O)C1
4. Cc1cn([C@H]2CC[C@@H](OCP(=O)(O)O)O2)c(=O)[nH]c1=O
5. C[C@H](Cn1cnc2c(N)ncnc21)OCP(=O)(O)O [TENOFOVIR ANHYDROUS]
6. Cc1cn([C@H]2C=C[C@@H](OCP(=O)(O)O)O2)c(=O)[nH]c1=O
7. O=c1ccn([C@H]2C=C[C@@H](OCP(=O)(O)OP(=O)(O)OP(=O)(O)O)O2)c(=O)[nH]1

1. 6.85
2. 7.22
3. 6.49
4. 5.27
5. 6.42
6. 6.41
7. 6.26

// batch mode: one pIC50 value per listed entry
1. Nc1ncnc2c1ncn2[C@H]1CC[C@@H](OCP(=O)(O)OP(=O)(O)OP(=O)(O)O)O1
2. Nc1ncnc2c1ncn2[C@H]1CC[C@@H](OCP(=O)(O)O)O1

6.59
5.39

----------
# testProtocol: Cytotoxicity against human MT2 cells
# Format: cell-based
measuredParameter: CC50

The examples below pair each entry with its known result.
[
  {
    "compound": "Cc1cn([C@H]2C=C[C@@H](OCP(=O)(O)O)O2)c(=O)[nH]c1=O",
    "CC50": "> 1000 µM"
  },
  {
    "compound": "C[C@H](Cn1cnc2c(N)ncnc21)OCP(=O)(O)O [TENOFOVIR ANHYDROUS]",
    "CC50": "> 1000 µM"
  },
  {
    "compound": "Nc1nc(NC2CC2)c2ncn([C@H]3C=C[C@@H](CO)C3)c2n1 (single isomer, unassigned) [ABACAVIR]",
    "CC50": "190 µM"
  }
]

// batch mode: one CC50 value per listed entry
1. O=c1[nH]c(=O)n([C@H]2C=C[C@@H](OCP(=O)(O)O)O2)cc1Cl
2. O=c1[nH]c(=O)n([C@H]2C=C[C@@H](OCP(=O)(O)O)O2)cc1Br
3. O=c1ccn([C@H]2C=C[C@@H](OCP(=O)(O)O)O2)c(=O)[nH]1
4. Nc1ncnc2c1ncn2[C@H]1CC[C@@H](OCP(=O)(O)O)O1
5. Nc1ncnc2c1ncn2[C@H]1CO[C@@H](OCP(=O)(O)O)C1
6. Nc1ncnc2c1ncn2[C@H]1C=C[C@@H](OCP(=O)(O)O)O1

413 µM
935 µM
> 1000 µM
> 1000 µM
863 µM
> 1000 µM

----------
# testProtocol: Inhibition of wild type HIV reverse transcriptase
# Design: species or system Human immunodeficiency virus
Provide the recorded IC50 for the entries that follow.
Give bare numbers, in nM.

The examples below pair each entry with its known result.
[
  {
    "compound": "Nc1ncnc2c1ncn2[C@H]1C=C[C@@H](OCP(=O)(O)O)O1",
    "measuredParameter": "IC50",
    "u": "nM",
    "reportedMeasurement": 600
  },
  {
    "compound": "O=c1ccn([C@H]2C=C[C@@H](OCP(=O)(O)O)O2)c(=O)[nH]1",
    "measuredParameter": "IC50",
    "u": "nM",
    "reportedMeasurement": 5700
  }
]

Specify IC50 for Nc1nc(NC2CC2)c2ncn([C@H]3C=C[C@@H](CO)C3)c2n1 (single isomer, unassigned) and stop.
130
